Attribute: TGI
Test system: RXF-631 renal
Test: NCI tumour cell line growth inhibition, 48 h

Worked examples, 5 compounds total:
C=C(C)[C@H](O)C(O)CC(C)[C@@H]1CCC23CC12CCC1[C@@]2(C)CCC(OC(C)=O)C(C)(C)C2CC(OC2OC(COC(C)=O)C(O)C(O)C2O)[C@]13C (stereo partly specified); 12 µM
Cc1ccc(N2C(=O)/C(=C/c3ccc(N(CCC#N)CCC#N)cc3C)N=C2c2cc([N+](=O)[O-])ccc2Cl)cc1; > 100 µM
COC1=CC(=O)[C@]2(C)[C@H](C1=O)C(C)[C@H]2c1ccccc1 (stereo partly specified); > 100 µM
O=C(/C=C1/NC(=O)CS1)Nc1ccccc1; > 100 µM
N#CN1CCC=C(c2cc3ccccc3[nH]2)C1; > 448 µM

Next item in the queue.
Ask | Given CC(C)(c1ccc(OC#N)cc1)c1ccc(OC#N)cc1 , state its recorded TGI.
Reply | > 100 µM
